# EXPERIMENTAL_TARGET: Endoribonuclease Dicer (Homo sapiens)
# MEASUREMENT_DESCRIPTION: Dicer cleavage of pre-miR-21 blockers – biochemical, cat-ELCCA, chemiluminescence, primary screen (AID 1347074);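 note: higher signal means more uncleaved substrate so more Dicer inhibition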
# RECORDED_CONDITIONS: cat-ELCCA pre-miR-21 Dicer processing, at 25 µM
Out of some 47,000 compounds screened, about 2,800 (6%) were called active. Cut-off read from the data, not from the text of the source: active = z-score above about 3 (passing the limit was not always enough); inactive = the rest. What follows is part of a selection rich in actives, with near analogues and random picks from the rest.
The categories you may choose from are active, inactive

Query: Recorded test call requested for O=c1[nH]c(SCc2ccccc2)nnc1-c1ccccc1
Result: inactive

Query: Recorded test call requested for COc1ccc2cc(S(=O)(=O)N3CCN(C(c4ccccc4)c4ccccc4)CC3)ccc2c1
Result: inactive

Query: Recorded test call requested for CCS(=O)(=O)n1nc(-c2ccccc2)nc1SCc1ccccc1
Result: active

Query: Recorded test call requested for Brc1ccccc1C1Nc2cccc3cccc(c23)N1
Result: active

Query: Recorded test call requested for Cc1cccc(NC(c2ccc3c(c2)OCO3)c2ccc3ccc(C)nc3c2O)n1 (stereo unspecified)
Result: inactive

Query: Recorded test call requested for Nc1n[nH]c2c1CSc1ccc(Cl)cc1-2
Result: inactive

Query: Recorded test call requested for CCOC(=O)c1c(C)nn(-c2ncccc2[N+](=O)[O-])c1C
Result: inactive

Query: Recorded test call requested for Cc1nc(-c2cc(C#N)c(SCCNS(=O)(=O)c3ccc(Cl)cc3Cl)nc2C)cs1
Result: inactive

Query: Recorded test call requested for O=C1/C(=C/c2cc(Br)cs2)Cc2ccccc21
Result: inactive

Query: Recorded test call requested for CC(=O)Oc1cc2c(C(=O)N3CCN(c4ccccc4)CC3)c(C)oc2c2ccccc12
Result: active

Query: Recorded test call requested for Cc1ccc2nc(-c3ccc(NS(=O)(=O)c4ccc(Cl)s4)cc3)sc2c1
Result: active

Query: Recorded test call requested for Cc1ccccc1CN1C=C(C(N)=O)C(C(F)(F)F)CC1 (stereo unspecified)
Result: inactive

Query: Recorded test call requested for CCc1nc(-c2ccc(-c3ccccc3)nc2OC)no1
Result: inactive

Query: Recorded test call requested for Cc1ccc(-n2nnnc2-c2cnc3ccccc3c2C)cc1
Result: inactive

Query: Recorded test call requested for Cc1ccc(S(=O)(=O)Nc2ccc3ncccc3c2)cc1
Result: inactive

Query: Recorded test call requested for CCOc1ccccc1C1Nc2c(C)cccc2-c2cc(C)nn21 (stereo unspecified)
Result: active

Query: Recorded test call requested for CCS(=O)(=O)n1nc(-c2ccc(OC)cc2)nc1SC
Result: active

Query: Recorded test call requested for Cc1ccc(N=C2SC3(CC3)C(=O)N2c2ccc(C)cc2)cc1
Result: inactive

Query: Recorded test call requested for Cc1ccc(C2CC(C(F)(F)F)n3ncc(C(=O)N(C)Cc4cn(C)nc4C)c3N2)cc1 (stereo unspecified)
Result: inactive

Query: Recorded test call requested for CC(C)N(CCC#N)CN1C(=O)c2ccccc2C1=O
Result: inactive

Query: Recorded test call requested for Cc1nc2cc(-n3c(O)c[nH]c3=O)ccc2s1
Result: inactive

Query: Recorded test call requested for CCCc1cc(=O)n2[nH]c(SCc3ccccc3)nc2n1
Result: inactive

Query: Recorded test call requested for CC1(C)SC2C(NC(=O)COc3ccccc3)C(=O)N2C1C(=O)O (stereo unspecified)
Result: inactive

Query: Recorded test call requested for O=C(NCc1ccco1)c1nc2ncccn2n1
Result: inactive

Query: Recorded test call requested for Cc1cccc(C)c1NC(=S)N1CCc2ccccc2C1
Result: inactive

Query: Recorded test call requested for Cc1cccc(NC(c2cccc(F)c2)c2ccc3ccc(C)nc3c2O)n1 (stereo unspecified)
Result: inactive

Query: Recorded test call requested for O=C1c2ccc3c4c(ccc(c24)C(=O)N1c1ccccc1)C(=O)N(c1ccccc1)C3=O
Result: inactive

Query: Recorded test call requested for Clc1ccc(CNc2nc3ccccc3n2CCN2CCOCC2)cc1
Result: active

Query: Recorded test call requested for O=C(NCc1ccc2c(c1)OCO2)c1ccc(Cn2cc(Cl)cn2)cc1
Result: inactive

Query: Recorded test call requested for CC(C)(C)c1cc(N/C=C/c2nnnn2-c2ccccc2)no1
Result: inactive

Query: Recorded test call requested for CC(C)OC(=O)Cn1nc(C(F)(F)F)c2c1CCCC2
Result: inactive

Query: Recorded test call requested for O=C(Oc1ccc(Br)cc1)c1cccnc1
Result: active

Query: Recorded test call requested for COc1ccc(S(=O)(=O)N2CCCCC2)cc1Br
Result: active

Query: Recorded test call requested for Cc1ccc2nsnc2c1S(=O)(=O)Nc1ccc(Br)cc1
Result: active

Query: Recorded test call requested for O=c1oc2cc(S(=O)(=O)N3CCCCC3)ccc2c2ccc(S(=O)(=O)N3CCCCC3)cc12
Result: inactive

Query: Recorded test call requested for O=C(O)CC1S/C(=N\N=C\c2ccco2)NC1=O (stereo unspecified)
Result: inactive

Query: Recorded test call requested for COc1ccc(-n2cnc3cc(NCc4ccco4)ccc32)cc1
Result: active

Query: Recorded test call requested for CCOC(=O)c1nnn2c1nc(N1CCN(c3ccccc3)CC1)c1ccccc12
Result: inactive

Query: Recorded test call requested for CS(=O)(=O)n1nc(-c2ccccc2)nc1NCc1ccco1
Result: active

Query: Recorded test call requested for COc1cccc(N2C(=O)C3ON(c4ccccc4)C(c4ccco4)C3C2=O)c1 (stereo unspecified)
Result: inactive

Query: Recorded test call requested for COc1ccccc1N1CCN(S(=O)(=O)c2ccc(Br)cc2)CC1
Result: inactive
